Test system: NCI-H522 lung
METHOD_DESCRIPTION: NCI tumour cell line growth inhibition, 48 h
VALUE_TYPE: GI50

>  <ITEM_SMILES>
CS(=O)(=O)Nc1cc(-c2ccc3ncnc(Nc4ccc5c(cnn5Cc5ccccc5F)c4)c3c2)cnc1Cl

>  <VALUE_TYPE>
GI50

>  <OBSERVED_VALUE>
1180 nM

$$$$
>  <ITEM_SMILES>
N#Cc1nc2cc(F)c(F)cc2nc1-c1ccc(Cl)cc1

>  <VALUE_TYPE>
GI50

>  <OBSERVED_VALUE>
13500 nM

$$$$
>  <ITEM_SMILES>
OCCNCCNc1c2ccccc2nc2oc3ccccc3c12

>  <VALUE_TYPE>
GI50

>  <OBSERVED_VALUE>
7730 nM

$$$$
>  <ITEM_SMILES>
COCCNC(=O)c1ccc(-c2nc3ccc4[nH]ncc4c3c3c2CCCC3)cc1

>  <VALUE_TYPE>
GI50

>  <OBSERVED_VALUE>
1920 nM

$$$$
>  <ITEM_SMILES>
COc1cccc2c(=O)c3c(sc12)c(NCCN(C)C)nc1ccccc13

>  <VALUE_TYPE>
GI50

>  <OBSERVED_VALUE>
1360 nM

$$$$
>  <ITEM_SMILES>
CCOC(=O)C#Cc1c(CC(=O)OCC)nnn1[C@H]1O[C@@H](CO)[C@@H]2OC(C)(C)O[C@@H]21

>  <VALUE_TYPE>
GI50

>  <OBSERVED_VALUE>
2120 nM

$$$$
>  <ITEM_SMILES>
O=C(/C=C/c1ccc(C(F)(F)F)cc1)c1ccc(Nc2nc(NCCO)nc(N3CCOCC3)n2)cc1

>  <VALUE_TYPE>
GI50

>  <OBSERVED_VALUE>
1850 nM

$$$$
>  <ITEM_SMILES>
COC(=O)c1cc2oc(/C=C3\SC(=S)N(NC(C)=O)C3=O)cc2n1Cc1ccccc1

>  <VALUE_TYPE>
GI50

>  <OBSERVED_VALUE>
> 50000 nM

$$$$
>  <ITEM_SMILES>
C=CC(=O)Nc1cccc(C)c1Nc1ncc2cc(-c3c(Cl)c(OC)cc(OC)c3Cl)ccc2n1

>  <VALUE_TYPE>
GI50

>  <OBSERVED_VALUE>
10200 nM

$$$$
